This collection of values is drawn from patent US7202255B2.

assay endpoint: melting point (°C)

Below, each entry is followed by its recorded melting point result.
- compound: "CN1C(=O)c2c(Oc3ccccc3O)cc3c(c2C1=O)c1cc(OCc2ccccc2)ccc1n3C(=O)OC(C)(C)C"
  assay endpoint: "melting point"
  unit annotation: "°C"
  measured value: 170
- compound: "COc1ccccc1Oc1cc2[nH]c3ccccc3c2c2c1C(=O)N(C)C2=O"
  assay endpoint: "melting point"
  unit annotation: "°C"
  measured value: 228
- compound: "CN1C(=O)c2c(Oc3ccccc3O)cc3[nH]c4cc(O)ccc4c3c2C1=O"
  assay endpoint: "melting point"
  unit annotation: "°C"
  measured value: 200
- compound: "CN1C(=O)c2c(Oc3ccccc3OS(=O)(=O)C(F)(F)F)cc3c(c2C1=O)c1ccc(OCc2ccccc2)cc1n3C(=O)OC(C)(C)C"
  assay endpoint: "melting point"
  unit annotation: "°C"
  measured value: 186
- compound: "Cn1c(=O)c2c3oc4ccccc4oc3c3[nH]c4cc(O)ccc4c3c2c1=O"
  assay endpoint: "melting point"
  unit annotation: "°C"
  measured value: 360

A. CC(C)(C)OC(=O)n1c2cc(OCc3ccccc3)ccc2c2c3c(c(Oc4ccccc4O)cc21)C(=O)NC3=O
B. Cn1c(=O)c2c3oc4ccccc4oc3c3c(oc4ccccc4n3C(=O)Oc3ccccc3)c2c1=O
Which value of melting point is greater, the one for A or the one for B ? Provide the label of your selected option as the answer. A
(A: 198 °C, B: 130 °C)
